# credit: paper PMC2935290

# test_target: HLA-DPB1*0101 (human (endogenous in VAVY))
# experimental_protocol: radioligand binding
Would you mind telling me the reported other of each entry?
One number for each entry.

Worked cases, answers included:
| binder | other |
| --- | --- |
| EKKQFAATQFEPLAA [… Y4Q] | 1 |
| EKKYFAATCFEPLAA [… Q9C] | 1.8 |
| EKKYFAATRFEPLAA [… Q9R] | 1.8 |
| EKKYFPATQFEPLAA [… A6P] | 0.18 |

Give me other for each of these binders, listed below.
1. EKKYFAADQFEPLAA [… T8D]
2. EKKYFAATHFEPLAA [… Q9H]
3. EKKYFYATQFEPLAA [… A6Y]
4. EKKYFAATPFEPLAA [… Q9P]
5. EKKYFAANQFEPLAA [… T8N]
6. EKKAFAATQFEPLAA [… Y4A]

1. 0.2
2. 1
3. 6
4. 1
5. 3.4
6. 0.066

Give me other for each of these binders, listed below.
1. EKKDFAATQFEPLAA [… Y4D]
2. EKKYFTATQFEPLAA [… A6T]
3. EKKYFFATQFEPLAA [… A6F]

1: 2; 2: 2.1; 3: 2.1
